study-system: Sphingomyelin phosphodiesterase (Homo sapiens)
Sequence (P17405 whole entry): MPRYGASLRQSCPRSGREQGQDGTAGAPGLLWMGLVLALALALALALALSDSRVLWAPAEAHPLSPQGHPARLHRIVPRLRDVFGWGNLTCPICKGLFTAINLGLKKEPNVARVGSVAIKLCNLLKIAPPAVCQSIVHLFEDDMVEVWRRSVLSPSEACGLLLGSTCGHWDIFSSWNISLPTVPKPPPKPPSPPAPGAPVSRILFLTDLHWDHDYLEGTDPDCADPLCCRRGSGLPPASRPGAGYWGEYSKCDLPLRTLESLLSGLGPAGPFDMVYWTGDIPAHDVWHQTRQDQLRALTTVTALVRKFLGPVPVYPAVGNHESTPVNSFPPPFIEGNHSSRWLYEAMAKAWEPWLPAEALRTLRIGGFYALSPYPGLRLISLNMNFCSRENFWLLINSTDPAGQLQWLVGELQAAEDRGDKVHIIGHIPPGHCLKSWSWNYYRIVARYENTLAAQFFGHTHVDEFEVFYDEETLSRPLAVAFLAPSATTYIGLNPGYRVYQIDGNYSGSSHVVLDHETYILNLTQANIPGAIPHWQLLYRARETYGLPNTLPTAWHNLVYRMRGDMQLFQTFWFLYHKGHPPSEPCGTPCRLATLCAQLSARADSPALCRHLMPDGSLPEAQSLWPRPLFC
assay-remarks: Inhibition of human Huh7 cell derived acid sphingomyelinase using NBD-sphingomyelin as substrate after 30 mins by fluorescence based assay
metric-name: IC50 (µM)
Value expressed in µM; do not type the unit.

Look up IC50 of COc1ccc(-c2nc(COc3cc(C(=O)NO)ccc3OC)no2)cc1OC and report it.
13.8

Look up IC50 of COc1c(O)cc2oc3cc(O)c(CC=C(C)C)c(O)c3c(=O)c2c1CC=C(C)C and report it.
14.1

Look up IC50 of COc1ccc(C(=O)NO)cc1OCc1ccc(-c2cccnc2)cc1 and report it.
4.97

Look up IC50 of O=C(NO)c1cc(OCc2ccc(-c3ccccc3)cc2)no1 and report it.
0.88

Look up IC50 of O=C(NO)c1cccc(OCc2ccc(-c3cccnc3)cc2)c1 and report it.
52.3

Look up IC50 of CCCCCCCCCCOc1cc(C(=O)NO)on1 and report it.
0.36

Further cases:
Look up IC50 of O=C(NO)c1cccc(OCc2ccc(-c3noc(CCc4ccccc4)n3)cc2)c1 and report it.
1.73

Look up IC50 of O=C(NO)c1cccc(OCc2ccc(-c3ccccc3)cc2)c1 and report it.
19.6

Look up IC50 of CCc1nc(-c2ccc(COc3cccc(C(=O)NO)c3)cc2)no1 and report it.
34.7

Look up IC50 of COc1ccc(C(=O)NO)cc1OCc1noc(-c2cccc(Cl)c2)n1 and report it.
9.22
